absorbance at 450 nm values by entry
# Experimental Target: T1, Claudin 18.2 VLP (UniProt P56856 1-261)
# T1 construct: Antigen coated on ELISA plates, 200 ng/well; source and construct not described; also called Claudin18.2-VLP protein; Claudin18.2 VLP antigen
# Measurement Description: ELISA, coated antigen 200 ng/well; antibody 100 ug/mL (so in the source)
Quick one: just the number, no unit, thanks!

Known absorbance at 450 nm results, listed for orientation:
5-hIgG1Fc (Fc fusion, VHH-hIgG1Fc recombinant antibody; also called 5-hlgG1Fc; VHH-hIgG1Fc recombinant antibody of clone 5; not shown: human IgG1 Fc (hIgG1Fc)) QVQLVESGGGLVQTGGSLRLSCAASDSTFSSYIMGWFRQAPGKEREFVAGITWSGGIKDYADSVKGRFTIARDNAKNTVYLQMNSLKPEDAAIYYCAANAIQLTRRSGDYAYWGQGTQVTVSS	2.35
8-hIgG1Fc (Fc fusion, VHH-hIgG1Fc recombinant antibody; also called 8-hlgG1 Fc; VHH-hIgG1Fc recombinant antibody of clone 8; not shown: human IgG1 Fc (hIgG1Fc)) QVQLVESGGGLVQPGGSLRLSCAASGSIFGLNFMGWWRQAPGSQRELVAIATSGGSIQYGDSVKGRFTISRDNAKNTVYLQMASLKPEDTAVYYCNVHTYDFLGRDYWGQGTQVTVSL	2.46
10-hIgG1Fc (Fc fusion, VHH-hIgG1Fc recombinant antibody; also called 10-hlgG1Fc; VHH-hIgG1Fc recombinant antibody of clone 10; not shown: human IgG1 Fc (hIgG1Fc)) QVQLAESGGGLVQPGGSLRLSCAASGNILSINYMGWYRQAPGKERELVATITRGGTTNYQGDLKGRFIISGDNTKDTVYLQMNNLQPEDTAVYYCYFRINFGILGGLRDYWGQGTQVTVSS	2.62

Lab note: next binder to report on.
*Q* Please report the recorded absorbance at 450 nm for 1-hIgG1Fc (Fc fusion, VHH-hIgG1Fc recombinant antibody; also called 1-hlgG1Fc; VHH-hIgG1Fc recombinant antibody of clone 1; not shown: human IgG1 Fc (hIgG1Fc)) EVQLVGSGGGLVQPGGSLRLSCAASGSILNLMTTGWYRQAPGKQRDLVATITFGGTTNYADSVKGRFTISRDKSKNTAYLQMDNLKPEDTAVYFCYADVIVGFQDRRVAWDAGTQVTVSS .
*A* 2.66
